# Tested on: A498
# PROTOCOL TEXT: NCI tumour cell line growth inhibition, 48 h
Calls of active or inactive are those of the source. No stated cut-off is given here; in the data, active = GI50 up to about 1.1 µM and inactive = higher.
Select the matching outcome among y (active), n (inactive)

>>> answer_label("Cn1c2c3ccc(Cl)cc3nc-2c(Cl)c2ccccc21")
"n"
>>> answer_label("COC(=O)c1c(O)ccc2c1c1c(n2Cc2cc(OC)cc(OC)c2)C(=O)c2ccccc2C1")
"n"

Task: Name the outcome recorded for COc1ccc(N/N=C/C2=CC(C)(C)C(C#N)(C#N)C(O)=C2C#N)cc1 in the assay.
Result: n

Task: Now give it for CC1OC(CC(=O)O)Cc2c(O)c3c(c(O)c21)C(=O)C=C(C1=CC(=O)c2c(O)c4c(c(O)c2C1=O)CC(CC(=O)O)OC4C)C3=O (stereo unspecified) too.
Result: n

Task: Now give it for C[N+](C)(N)Cc1csc(-c2ccc(Cl)cc2)n1 too.
Result: n

Task: Now give it for COc1cc2c(cc1C1COc3cc4occc4cc3C1=O)OCO2 (stereo unspecified) too.
Result: n

* * *

# System: NCI-H226
# PROTOCOL TEXT: NCI tumour cell line growth inhibition, 48 h
The source made the active and inactive calls. No stated cut-off is given here; in the data, active = GI50 up to about 1.1 µM and inactive = higher.
Select the matching outcome among Y = active, N = inactive

>>> answer_label("O=c1n(C2CCCCC2)c(=C(Cl)Cl)c(=C(Cl)Cl)n1C1CCCCC1")
"N"
>>> answer_label("CC[C@@H](C)[C@H]([C@H](CC(=O)N1CCC[C@@H]1[C@@H](OC)[C@H](C)C(=O)N[C@H](Cc1ccccc1)c1nccs1)OC)N(C)C(=O)[C@H](NC(=O)[C@@H](C(C)C)N(C)C)C(C)C")
"Y"
>>> answer_label("C=C(O)c1ccccc1C#Cc1ccccc1C(=O)OC")
"N"

# ---- query molecule ----
Task: Name the outcome recorded for CN(C)CCNc1ccc(CO)c2sc3ccc(O)cc3c(=O)c12 in the assay.
Result: N

* * *

# Tested on: OVCAR-3
# PROTOCOL TEXT: NCI tumour cell line growth inhibition, 48 h
Active and inactive are the calls of the source. Rule as the data show it: active = GI50 up to about 1.1 µM and inactive = higher.
Select the matching outcome among YES (active), NO (inactive)

Task: Name the outcome recorded for O=C(Cc1ccccc1)c1ccc2[nH]c(=O)oc2c1 in the assay.
Result: NO

Task: Now give it for CC(C)OP(=O)(CCCCCCCCC/C=C/c1ccc2c(c1)OCCOCCOCCOCCO2)OC(C)C too.
Result: NO

Task: Now give it for CCOC(=O)N/N=C(\Cc1ccccc1)OCC too.
Result: NO

Task: Now give it for Cc1ccc(NC(=O)CC(=O)n2nc(C)c(/N=N/c3cccc(C)c3)c2C)cc1 too.
Result: NO

Task: Now give it for CCOCC(=O)N[C@H]1CCc2cc(OC(=O)COCC)c(OC)c(OC)c2-c2ccc(SC)c(=O)cc21 too.
Result: YES

Task: Now give it for CCN(CC)C(=S)SNCCc1ccc(S(N)(=O)=O)cc1 too.
Result: NO

Task: Now give it for CCOC(=O)/C(Br)=C1/OC(=O)c2ccccc2-c2ccccc21.CCOC(=O)/C(Br)=C1\OC(=O)c2ccccc2-c2ccccc21 too.
Result: NO

Task: Now give it for CN1CCC/C1=N\C#N too.
Result: NO

Task: Now give it for CCOC(=O)[C@@]12C(C)=CC(=O)O[C@]1(C)C[C@H]2C#N too.
Result: NO

Task: Now give it for O=C1c2ccccc2-c2nc3ccc(O)cc3n21 too.
Result: NO

Task: Now give it for COC1OC(C)C(OC(=O)C(C)(C)C)C(OS(=O)(=O)c2ccc(C)cc2)C1OS(=O)(=O)c1ccc(C)cc1 (stereo unspecified) too.
Result: NO
